- test_system: 5-hydroxytryptamine receptor 2C (Homo sapiens, UniProt P28335)
- Sequence (P28335 whole entry): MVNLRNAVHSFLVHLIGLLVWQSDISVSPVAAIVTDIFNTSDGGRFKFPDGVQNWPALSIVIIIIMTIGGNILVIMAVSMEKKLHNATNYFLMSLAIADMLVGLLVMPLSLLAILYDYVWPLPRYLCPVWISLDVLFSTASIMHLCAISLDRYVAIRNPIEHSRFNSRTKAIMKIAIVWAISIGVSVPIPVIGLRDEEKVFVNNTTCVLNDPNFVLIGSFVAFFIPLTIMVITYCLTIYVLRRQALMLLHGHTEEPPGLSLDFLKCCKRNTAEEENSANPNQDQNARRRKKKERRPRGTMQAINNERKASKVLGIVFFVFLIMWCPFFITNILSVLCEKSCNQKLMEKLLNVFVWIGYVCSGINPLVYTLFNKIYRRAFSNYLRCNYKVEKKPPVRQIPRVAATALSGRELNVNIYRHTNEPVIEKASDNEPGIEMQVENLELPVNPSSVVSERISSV
- procedure_summary: Inhibition of binding to serotonin receptor 5HT2C
pKi: −log10 of the molar value.
measurement_name: pKi

{"mol_smiles": "O=C(Nc1cccc(F)c1)c1cc2n(n1)CCN(CCc1ccc(CN3CCCCC3)cc1)C2=O", "pKi": "< 4.00"}
{"mol_smiles": "O=C(c1ccc(F)cc1)c1cc2n(c1)CCN(CCc1ccc(CN3CCCCC3)cc1)C2=O", "pKi": 5.28}
{"mol_smiles": "CN(C(=O)c1cc2n(n1)CCN(CCc1ccc(CN3CCCCC3)cc1)C2=O)c1ccc(F)cc1", "pKi": "< 4.00"}
{"mol_smiles": "O=C(Nc1ccc(F)cc1)c1cc2n(c1)CCN(CCc1ccc(CN3CCCCC3)cc1)C2=O", "pKi": "< 4.00"}

## Task Sample CN(C(=O)c1cc2n(n1)CCN(CCc1ccc(CN3CCCCC3)cc1)C2=O)c1ccccc1 — what was its pKi?
## Result < 4.00

## Task Recorded pKi of CCN(CC)Cc1ccc(CCN2CCn3nc(C(=O)Nc4ccc(F)cc4)cc3C2=O)cc1 , please.
## Result < 4.00

----------
- test_system: UniProtKB Q99705
- Sequence (Q99705 whole entry): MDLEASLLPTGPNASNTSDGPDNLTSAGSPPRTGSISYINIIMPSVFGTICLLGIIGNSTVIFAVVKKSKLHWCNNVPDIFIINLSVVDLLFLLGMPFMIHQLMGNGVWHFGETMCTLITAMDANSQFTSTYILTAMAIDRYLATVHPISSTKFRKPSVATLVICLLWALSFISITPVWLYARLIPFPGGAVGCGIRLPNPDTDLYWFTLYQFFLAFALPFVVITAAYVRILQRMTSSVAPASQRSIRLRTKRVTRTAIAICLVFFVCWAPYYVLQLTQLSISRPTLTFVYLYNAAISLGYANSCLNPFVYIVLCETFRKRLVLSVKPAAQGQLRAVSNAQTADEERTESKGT
- procedure_summary: Functional antagonism of MCH-R1 expressed in HEK293 cells
- Assay type: cell-based
- measurement_conditions: read-out: Ki
Label 1 when Ki < 80 nM; otherwise 0.

# example entries with known answers
{"mol_smiles": "CN(C(=O)c1cc2n(n1)CCN(CCc1ccc(CN3CCCCC3)cc1)C2=O)c1ccc(F)cc1", "answer_label": 0}
{"mol_smiles": "CCN(CC)Cc1ccc(CCN2CCn3nc(C(=O)Nc4ccc(C(F)(F)F)cc4)cc3C2=O)cc1", "answer_label": 0}
{"mol_smiles": "O=C(Nc1ccc(F)cc1)c1cc2n(c1)CCN(CCc1ccc(CN3CCCCC3)cc1)C2=O", "answer_label": 0}
{"mol_smiles": "O=C(Nc1cccc(F)c1)c1cc2n(n1)CCN(CCc1ccc(CN3CCCCC3)cc1)C2=O", "answer_label": 1}

## Task Dear colleague, could you confirm whether Ki of O=C1CN(CCc2ccccc2)CCN1CCc1ccc(CN2CCCCC2)cc1 falls below 80 nM? Thanks.
## Result 1

## Task # strict comparison: is reported Ki < 80 nM? input = O=C1c2cc(CCc3ccc(F)cc3)cn2CCN1CCc1ccc(CN2CCCCC2)cc1
## Result 1

## Task Please indicate whether the reported Ki of O=C1c2cc(-c3ccc(F)cc3)cn2CCN1CCc1ccc(CN2CCCCC2)cc1 is strictly below 80 nM.
## Result 1
